Origin of values: patent US10278942B2

pIC50 for assorted molecules
# Tested target: HIF-2α HIS TAG-PASB Domain (Homo sapiens)
# Construct: 100 nM HIF-2α HIS TAG-PASB Domain
# Assay comment: HIF-2α Scintillation Proximity Assay (SPA)
# Assay type: binding
# Test parameters: read-out: Scintillation Proximity Assay IC50
pIC50: −log10 of the molar value.

• O=S(=O)(c1ccc(Oc2cc(F)cc(Cl)c2)c(CO)c1CO)C(F)F = < 6.00
• O=S(=O)(c1ccc(-c2ccn[nH]2)c2c1[C@H](O)C(F)(F)C2)C(F)(F)F = < 6.00
• N=S1(=O)c2ccc(Oc3cc(F)cc(F)c3)c(C(F)F)c2C(O)C1(F)F (stereo not drawn) [Compound 398] = > 7.30

**Q:** Any idea what pIC50 was measured for CC(C)(C#N)COc1ccc(S(=O)(=O)C(F)(F)F)c2c1CC(F)(F)C2O (stereo not drawn) ?
**A:** > 7.30

**Q:** Can you handle CC1(COc2ccc(S(=O)(=O)C(F)(F)F)c3c2CC(F)(F)C3O)COC1 (stereo not drawn) next?
**A:** 6.00 to 6.60

**Q:** Can you handle `O=S(=O)(c1ccc(CCO)c2c1[C@H](O)C(F)(F)C2)C(F)(F)F` next?
**A:** 6.00 to 6.60

**Q:** Can you handle `CS(=O)(=O)c1ccc(OC2CCC(F)(F)CC2)c2c1[C@H](O)C(F)(F)[C@@H]2F` next?
**A:** 6.60 to 7.30

###

# Tested target: HIF-2α HIS TAG-PASB Domain (Homo sapiens, UniProt Q99814)
# Construct: 100 nM HIF-2α HIS TAG-PASB Domain
# Sequence (Q99814 240-350 limits assumed): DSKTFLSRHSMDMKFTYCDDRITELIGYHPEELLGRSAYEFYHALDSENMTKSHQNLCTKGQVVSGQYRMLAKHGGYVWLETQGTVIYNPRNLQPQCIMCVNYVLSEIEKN
# Assay comment: HIF-2α Scintillation Proximity Assay (SPA)
# Format: binding
# Test parameters: read-out: Scintillation Proximity Assay IC50
pIC50: −log10 of the molar value.
Metric name: pIC50

Reference set (5 entries):
- CS(=O)(=O)c1ccc(OCC(F)(F)F)c2c1[C@H](O)C(F)(F)[C@@H]2F: 6.60 to 7.30
- N#Cc1cccc(-c2ccc(S(=O)(=O)C(F)(F)F)c3c2CC(F)(F)[C@H]3O)c1: 6.60 to 7.30
- N#Cc1c(Oc2cc(F)cc(Cl)c2)ccc2c1[C@H](O)CS2(=O)=O: < 6.00
- O=S(=O)(c1ccc(NCc2cccs2)c2c1[C@H](O)C(F)(F)C2)C(F)F: < 6.00
- COCCNC1c2c(ccc(Oc3cc(F)cc(F)c3)c2Br)S(=O)(=O)C1(F)F (centres unmarked): > 7.30

**Q:** Find the measured pIC50: item `CS(=O)(=O)c1ccc(Oc2cncc(Br)c2)c2c1[C@H](O)[C@H](F)C2` , target or system HIF-2α HIS TAG-PASB Domain (Homo sapiens, UniProt Q99814).
**A:** < 6.00

**Q:** Can you handle N#Cc1cc(F)cc(Oc2ccc3c(c2CF)C(O)C(F)(F)S3(=O)=O)c1 (centres unmarked) next?
**A:** 6.60 to 7.30

**Q:** Can you handle CC1(O)c2c(ccc(OC3CC(F)(F)C3)c2C#N)S(=O)(=O)C1(F)F (centres unmarked) next?
**A:** < 6.00

**Q:** Can you handle `O=S(=O)(c1ccc(OC2CC(F)(F)C2)c2c1[C@H](O)C(F)(F)C2)C(F)(F)F` next?
**A:** > 7.30

**Q:** Can you handle `Cc1c(S(=O)(=O)C(F)F)ccc(Oc2cc(F)cc(F)c2)c1C#N` next?
**A:** > 7.30

**Q:** Can you handle `N#Cc1cc(F)cc(Oc2ccc(S(N)(=O)=O)c3c2C[C@@H](F)[C@H]3O)c1` next?
**A:** 6.60 to 7.30

**Q:** Can you handle CCCc1ccc(S(=O)(=O)C(F)(F)F)c2c1CCC2O (centres unmarked) next?
**A:** < 6.00
